# credit: patent US12226490B2

# target_under_test: T1, human ROR1-Fz (Homo sapiens, UniProt Q01973)
# T1 construct: Frizzled (Fz, residues 165-305); HIS6 (C); purchased Acro Biosystems; host or cells: HEK293
# test_protocol: Biacore off-rate and kinetic analysis, ROR1 frizzled domain
# Type: binding
# assay_context: Table 11 (SP34 light chain)
Reported values of Biacore human ROR1-Fz kd for individual entries
measured_metric: Biacore human ROR1-Fz kd (s⁻¹)

molecule	measured_metric	unit_of_measurement	recorded_measurement
SRP2196-B06 (antibody, V domains shown) VH: EVQLVESGGGLVQPGGSLRLSCAASGFNITGYYIHWVRQAPGKGLEWVGQISPNSGSTYSADSVKGRFTISADTSKNTAYLQMNSLRAEDTAVYYCARDSRRYVLSWDYWGQGTLVTVSS VL: QAVVTQESALTTSPGETVTLTCRSSTGAVTTSNYANWVQEKPDHLFTGLIGGTNKRAPGVPARFSGSLIGDKAALTITGAQTEDEAIYFCALWYSNLWVFGGGTKLTVL	Biacore human ROR1-Fz kd	s⁻¹	0.000423
SRP2196-B03 (antibody, V domains shown) VH: EVQLVESGGGLAQPGGSLRLSCAASGFNITGYYIHWVRQAPGKGLEWVGYISPNSGATHYADSVKGRFTISADTSKNTAYLQMNSLRAEDTAVYYCARDSRRYVRPFDYWGQGTLVTVSS VL: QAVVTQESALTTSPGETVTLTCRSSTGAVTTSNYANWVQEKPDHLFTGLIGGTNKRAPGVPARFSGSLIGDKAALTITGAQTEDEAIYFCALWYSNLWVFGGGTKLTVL	Biacore human ROR1-Fz kd	s⁻¹	0.000945
SRP2196-B10 (antibody, V domains shown) VH: EVQLVESGGGLVQPGGSLRLSCAASGFNITGYYIHWVRQAPGKGLEWVGSITPLSGATSKADSVKGRFTISADTSKNTAYLQMNSLRAEDTAVYYCARDSRRYIRSWDYWGQGTLVTVSS VL: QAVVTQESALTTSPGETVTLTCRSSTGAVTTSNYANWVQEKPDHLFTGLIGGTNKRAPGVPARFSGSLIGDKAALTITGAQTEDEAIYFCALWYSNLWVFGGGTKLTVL	Biacore human ROR1-Fz kd	s⁻¹	0.000334
